biological target: his-labeled human IL-13 (immunogen A) (human) (UniProt P35225); test: cell-based or functional assay
MEASUREMENT_KIND: Periostin (pg/mL), MRCS cells + IL-13 5 ng/mL; antibody at 0.021 nM
One number for each entry, in pg/mL.

BINDER: c70F10A10 (mouse-human chimeric IL-13 antibody) (antibody, V domains shown) VH: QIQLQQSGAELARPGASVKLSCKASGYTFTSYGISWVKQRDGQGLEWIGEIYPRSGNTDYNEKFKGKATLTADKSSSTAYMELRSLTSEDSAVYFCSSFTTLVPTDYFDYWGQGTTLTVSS VL: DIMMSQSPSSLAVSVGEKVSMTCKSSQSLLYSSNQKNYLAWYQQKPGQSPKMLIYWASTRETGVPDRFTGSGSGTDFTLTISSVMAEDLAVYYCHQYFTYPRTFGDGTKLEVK
UNIT_OF_MEASURE: pg/mL
NUMERIC_READOUT: 4540
--
BINDER: c35E2C3 (mouse-human chimeric IL-13 antibody) (antibody, V domains shown) VH: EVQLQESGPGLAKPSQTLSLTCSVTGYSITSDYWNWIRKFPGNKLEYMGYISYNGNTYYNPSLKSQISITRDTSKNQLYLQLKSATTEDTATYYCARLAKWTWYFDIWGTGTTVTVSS VL: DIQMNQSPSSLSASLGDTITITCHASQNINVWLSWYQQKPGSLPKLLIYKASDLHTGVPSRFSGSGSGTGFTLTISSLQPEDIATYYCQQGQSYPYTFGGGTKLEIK
UNIT_OF_MEASURE: pg/mL
NUMERIC_READOUT: 4480
--
BINDER: c29D9H8 (mouse-human chimeric IL-13 antibody) (antibody, V domains shown) VH: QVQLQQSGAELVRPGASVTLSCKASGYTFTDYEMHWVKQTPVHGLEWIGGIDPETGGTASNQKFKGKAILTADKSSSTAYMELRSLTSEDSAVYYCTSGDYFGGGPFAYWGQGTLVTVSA VL: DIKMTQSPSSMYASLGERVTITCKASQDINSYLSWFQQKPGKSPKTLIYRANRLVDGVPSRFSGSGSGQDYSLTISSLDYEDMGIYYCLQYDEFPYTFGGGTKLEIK
UNIT_OF_MEASURE: pg/mL
NUMERIC_READOUT: 3570

Let us examine a further case.
## Task Item c28A2E11 (mouse-human chimeric IL-13 antibody) (antibody, V domains shown) VH: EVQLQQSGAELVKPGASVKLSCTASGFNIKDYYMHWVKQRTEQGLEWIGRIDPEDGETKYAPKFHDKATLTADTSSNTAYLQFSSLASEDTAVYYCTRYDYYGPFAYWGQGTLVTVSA VL: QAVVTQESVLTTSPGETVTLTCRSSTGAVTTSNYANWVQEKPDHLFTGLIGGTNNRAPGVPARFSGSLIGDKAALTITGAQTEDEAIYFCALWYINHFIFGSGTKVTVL has what recorded Periostin (pg/mL), MRCS cells + IL-13 5 ng/mL; antibody at 0.021 nM?
## Result 4920
